From: ChEMBL document CHEMBL5357038

# target: Cholinesterase (Homo sapiens, UniProt P06276)
# Sequence (P06276 whole entry): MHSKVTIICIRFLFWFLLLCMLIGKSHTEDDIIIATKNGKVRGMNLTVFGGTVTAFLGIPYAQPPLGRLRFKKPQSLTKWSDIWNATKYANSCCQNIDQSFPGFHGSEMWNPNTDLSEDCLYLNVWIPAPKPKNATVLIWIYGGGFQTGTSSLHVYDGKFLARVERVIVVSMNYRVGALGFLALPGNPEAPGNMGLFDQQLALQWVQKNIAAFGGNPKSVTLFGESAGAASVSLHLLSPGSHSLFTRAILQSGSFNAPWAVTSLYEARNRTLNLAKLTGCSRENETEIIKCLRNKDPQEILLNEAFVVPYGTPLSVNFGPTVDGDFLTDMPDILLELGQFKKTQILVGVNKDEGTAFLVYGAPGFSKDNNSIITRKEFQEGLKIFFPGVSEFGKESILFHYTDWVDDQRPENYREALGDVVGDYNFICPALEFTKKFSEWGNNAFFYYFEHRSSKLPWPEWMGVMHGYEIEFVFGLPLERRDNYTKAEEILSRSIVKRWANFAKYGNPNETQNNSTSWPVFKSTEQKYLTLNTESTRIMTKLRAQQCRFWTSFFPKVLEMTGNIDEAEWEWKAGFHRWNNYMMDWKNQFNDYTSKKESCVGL
# procedure.text: Inhibition of BuChE (unknown origin) at 50 uM by Ellman's method relative to control
assay.metric: inhibition

{"compound": "O=C1Nc2ccc([N+](=O)[O-])cc2C12NNC(Nc1ccc(Cl)cc1)=C2[N+](=O)[O-] (configuration not stated)", "test.result": "21.8%"}
{"compound": "Cc1ccccc1NC1=C([N+](=O)[O-])C2(NN1)C(=O)Nc1ccc([N+](=O)[O-])cc12 (configuration not stated)", "test.result": "38.9%"}
{"compound": "O=C1Nc2c(C(F)(F)F)cccc2C12NNC(Nc1cccc(Cl)c1)=C2[N+](=O)[O-] (configuration not stated)", "test.result": "18.8%"}
{"compound": "Cc1ccccc1NC1=C([N+](=O)[O-])C2(NN1)C(=O)Nc1ccc(Cl)cc12 (configuration not stated)", "test.result": "73.8%"}
{"compound": "O=C1Nc2ccccc2C12NNC(Nc1ccc(O)cc1)=C2[N+](=O)[O-] (configuration not stated)", "test.result": "12.9%"}
{"compound": "Cc1ccccc1NC1=C([N+](=O)[O-])C2(NN1)C(=O)Nc1ccc(Br)cc12 (configuration not stated)", "test.result": "34%"}
